# Tested on: HT-29
# PROTOCOL: Cytotoxicity against human HT-29 cells after 1 to 48 hrs by MTT assay
# Assay type: functional, cell-based
OBSERVABLE: pIC50
Note on pIC50: it is the negative log10 of concentration, concentration in mol/L.

Record C/C1=C/C(=O)OC(C(C)(C)C)CC(O)CCCC(O)CCCC(O)CCCC(O)CCCC(O)CCCC(O)CCCC(O)CCC[C@@H](O)C[C@@H](O)CCC1 (stereo partly specified) . Reported pIC50: 6.06
